Quick list: logP per entry.
Assay Name: physchem
Reply briefly: the number, and no unit.

// query Tell me the measured logP of O=C(Nc1ccc([N+](=O)[O-])cc1Cl)c1cc(Cl)ccc1O [Niclosamide, reference compound] , please.
// result 3.38

Consider the additional molecule presented here.
// query Tell me the measured logP of CC(=O)Oc1ccccc1C(=O)Nc1ncc([N+](=O)[O-])s1 [NTZ, nitazoxanide, reference compound] , please.
// result 2.14

----------
Assay Name: WST-8 cell proliferation cytotoxicity assay
Type: cell-based, human
Measurement Context: human
Assay Metric: CC50

// query Tell me the measured CC50 of CC(=O)Oc1ccccc1C(=O)Nc1ncc([N+](=O)[O-])s1 [NTZ, nitazoxanide, reference compound] , please.
// result 77 µM

----------
Target: DENV2 NS2B-NS3 protease (Dengue virus type 2)
Construct: made in house
Sequence (P29990 1476-1654): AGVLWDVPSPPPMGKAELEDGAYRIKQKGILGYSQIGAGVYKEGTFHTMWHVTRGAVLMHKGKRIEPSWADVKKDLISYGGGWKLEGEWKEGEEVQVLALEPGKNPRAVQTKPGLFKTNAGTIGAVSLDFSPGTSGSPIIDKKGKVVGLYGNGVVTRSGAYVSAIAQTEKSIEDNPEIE
Assay Name: Protease inhibition assay (FRET peptide substrate)
Format: biochemical, Dengue virus serotype 2
Measurement Context: refolded NS3; read-out: IC50-pro (DN2)
Quick list: IC50 per entry.
The figure you give is taken to be in µM; do not add the unit.

Here are 3 compounds together with their reported answers.
// query Tell me the measured IC50 of O=C(Nc1ccc2c(c1)S(=O)(=O)C=C2)c1cc(Cl)ccc1O , please.
// result 20.3

// query Tell me the measured IC50 of CC[C@H](N)COc1ccc(Cl)cc1C(=O)Nc1ccc([N+](=O)[O-])cc1Cl , please.
// result 46.5

// query Tell me the measured IC50 of Nc1ccc(NC(=O)c2cc(Cl)ccc2O)c(Cl)c1 , please.
// result 11.3

Consider the additional compound presented here.
// query Tell me the measured IC50 of O=C(Nc1ccc([N+](=O)[O-])cc1Cl)c1cc(Cl)ccc1OC1CCNCC1 , please.
// result 44.5
